Where do these numbers come from? They come from patent US9695155B2.

Tested on: large (Lg) crabgrass
Test: Test A postemergence
Assay type: in vivo, Digitaria sanguinalis
Details: 500 g ai/ha, 0 to 100 scale where 0 is no effect and 100 is complete control

# molecule, Plant response rating, Crabgrass, Large
records = [
    ("N#Cc1ccc(Oc2ncc(Cl)cn2)c(-n2cc(Br)cn2)c1 [Compound 213]", 70),
    ("C=C(C)c1cccc(Oc2ncc(Cl)cn2)c1-n1cc(Br)cn1 [Compound 198]", 90),
    ("CNN=Cc1cccc(Oc2ncc(Cl)cn2)c1-n1cc(Cl)cn1 [Compound 296]", 0),
    ("C#Cc1cnc(Oc2cccc(C#N)c2-n2cc(Br)cn2)nc1 [Compound 215]", 30),
    ("CC#Cc1cnn(-c2ccccc2Oc2ncc(Cl)cn2)c1 [Compound 189]", 80),
    ("N#Cc1cnc(Oc2cccc(C(F)F)c2-n2cc(Br)cn2)nc1 [Compound 175]", 0),
    ("N#Cc1cnn(-c2c(C=O)cccc2Oc2ncc(Cl)cn2)c1 [Compound 237]", 0),
    ("FC(F)(F)c1cnn(-c2c(Cl)cccc2Oc2ncc(Br)cn2)c1 [Compound 168]", 90),
    ("CCOc1cnn(-c2c(C#N)cccc2Oc2ncc(Cl)cn2)c1 [Compound 92]", 90),
    ("O=Cc1cccc(Oc2ncc(F)cn2)c1-n1cc(C(F)(F)F)cn1 [Compound 162]", 10),
]

###

Test system: arrowleaf sida
Experiment: Test E preemergence
Assay type: in vivo, Sida rhombifolia
Conditions: 16 g ai/ha, preemergence; scale 0 to 100 (0 no effect, 100 complete control)
Description: […]
Recorded Arrowleaf Sida plant response rating by entry

# structureString, Arrowleaf Sida plant response rating
rows = [
    ("N#Cc1cccc(Oc2ncc(Br)cn2)c1-n1cc(C(F)(F)F)cn1", 50),
    ("N#Cc1cccc(Oc2ncc(Br)cn2)c1-n1cc(I)cn1", 30),
    ("N#Cc1cccc(Oc2ncc(Cl)cn2)c1-n1cc(C(F)(F)F)cn1", 80),
    ("FC(F)(F)COc1cnn(-c2ccccc2Oc2ncc(Cl)cn2)c1", 0),
]

###

Tested on: Italian ryegrass
Assay: Test C postemergence
Format: in vivo, Lolium multiflorum
Conditions: Postemergence, 62 g ai/ha; scale 0 to 100 (0 no effect, 100 complete control)
Recorded Plant response rating, Ryegrass, Italian by entry

# structureString, Plant response rating, Ryegrass, Italian
data = [
    ("FC(F)(F)c1cnn(-c2ccccc2Oc2ncc(Cl)cn2)c1", 15),
    ("FC(F)(F)c1cnn(-c2c(Cl)cccc2Oc2ncc(Cl)cn2)c1", 5),
    ("Clc1cnc(Oc2cccc(Br)c2-n2cc(Br)nn2)nc1", 20),
    ("CCOc1cnn(-c2c(C#N)cccc2Oc2ncc(Cl)cn2)c1", 5),
]

###

Recorded pest or weed control at 31 g/ha by entry
System: blackgrass
Assay: Test C postemergence
Format: in vivo, Alopecurus myosuroides
Conditions: Alopecurus myosuroides, post-emergence; Postemergence, 31 g ai/ha; scale 0 to 100 (0 no effect, 100 complete control); 13 to 15 days; read-out: Plant response rating, Blackgrass
Text: […]

# structureString, pest or weed control at 31 g/ha [%]
measured = [
    ("FC(F)(F)COc1cnn(-c2ccccc2Oc2ncc(Cl)cn2)c1", 5),
    ("FC(F)(F)Sc1cnn(-c2ccccc2Oc2ncc(Cl)cn2)c1", 5),
    ("Clc1cnc(Oc2ccccc2-n2cc(Br)cn2)nc1", 5),
    ("N#Cc1cccc(Oc2ncc(Cl)cn2)c1-n1cc(C(F)(F)F)cn1", 10),
]
